Biological target: human PTH1 receptor (Homo sapiens, UniProt Q03431)
Sequence (Q03431 27-593): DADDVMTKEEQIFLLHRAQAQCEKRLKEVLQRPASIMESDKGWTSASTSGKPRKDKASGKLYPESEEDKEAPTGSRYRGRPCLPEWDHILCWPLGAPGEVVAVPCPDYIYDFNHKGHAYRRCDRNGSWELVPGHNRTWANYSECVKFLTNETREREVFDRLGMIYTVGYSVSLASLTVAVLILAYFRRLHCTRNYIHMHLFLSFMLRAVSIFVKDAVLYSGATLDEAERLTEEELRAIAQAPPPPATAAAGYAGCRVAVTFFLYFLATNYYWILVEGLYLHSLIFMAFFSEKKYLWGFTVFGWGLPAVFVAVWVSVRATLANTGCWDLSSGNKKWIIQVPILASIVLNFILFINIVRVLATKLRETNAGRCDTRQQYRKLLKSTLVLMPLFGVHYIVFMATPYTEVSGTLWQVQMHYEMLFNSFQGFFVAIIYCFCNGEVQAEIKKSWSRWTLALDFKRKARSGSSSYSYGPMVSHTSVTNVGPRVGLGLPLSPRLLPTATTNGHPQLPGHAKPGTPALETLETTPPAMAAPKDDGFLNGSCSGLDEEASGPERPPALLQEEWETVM
Experiment: In vitro cAMP signal activity in HKRK-B7 cells (LLC-PK1 cells overexpressing the human PTH1 receptor)
Type: cell-based
Details: HKRK-B7 cells; compound at 1×10^−3 M; cAMP produced as percentage of that produced by hPTH(1-34) at 100 nM
Label not met if cAMP production activity (%) falls below 70%; label met in every other case.

Prompt: Threshold query (cAMP production activity (%) >= 70%) on Cc1cc(C(=O)N2CCC(O)(CF)CC2)cc(C)c1/C=C/S(=O)(=O)N1CCC2(CC1)N=C(c1ccc(Cl)c(OC(C)(C)C(F)(F)F)c1)NC2=O
Completion: met

Prompt: Threshold query (cAMP production activity (%) >= 70%) on O=C(CCCc1ccccc1)N1CCCC(C2=NC3(CCN(S(=O)(=O)CCc4cccc5ccccc45)CC3)C(=O)N2)C1 (centres unmarked)
Completion: not met

Prompt: Threshold query (cAMP production activity (%) >= 70%) on Cc1ccc(C(=O)N(C)CCO)cc1CCS(=O)(=O)N1CCC2(CC1)N=C(c1cccc(OC(F)(F)F)c1)NC2=O
Completion: not met

Prompt: Threshold query (cAMP production activity (%) >= 70%) on Cc1cc(C(=O)N(C)CCN(C)C)cc(C)c1/C=C/S(=O)(=O)N1CCC2(CC1)N=C(c1cccc(C(F)(F)F)c1)NC2=O
Completion: not met

Prompt: Threshold query (cAMP production activity (%) >= 70%) on CN(C)CCn1ccc2c(CCS(=O)(=O)N3CCC4(CC3)N=C(C3CCCCC3)NC4=O)cccc21
Completion: not met

Prompt: Threshold query (cAMP production activity (%) >= 70%) on Cc1cc(C(=O)N2CCC(OC[C@H](O)CO)CC2)cc(C)c1CCS(=O)(=O)N1CCC2(CC1)N=C(CCCCCCCCC(F)(F)F)NC2=O
Completion: met

Prompt: Threshold query (cAMP production activity (%) >= 70%) on Cc1cc(C(=O)N2CCC(C)(O)CC2)cc(C)c1/C=C/S(=O)(=O)N1CCC2(CC1)N=C(c1ccc(OCC(F)(F)C(F)F)c(Cl)c1)NC2=O
Completion: met

Prompt: Threshold query (cAMP production activity (%) >= 70%) on Cc1cc(C(=O)N2CC(F)(F)C(F)(F)C2)ccc1CCS(=O)(=O)N1CCC2(CC1)N=C(c1cccc(C(F)(F)F)c1)NC2=O
Completion: not met

Prompt: Threshold query (cAMP production activity (%) >= 70%) on Cc1cc(C(=O)N2CCS(=O)(=O)CC2)cc(C)c1CCS(=O)(=O)N1CCC2(CC1)N=C(C1CCC(C)CC1)NC2=O (centres unmarked)
Completion: met

Prompt: Threshold query (cAMP production activity (%) >= 70%) on Cc1cc(C(=O)N2CC[C@@H](F)C2)cc(C)c1/C=C/S(=O)(=O)N1CCC2(CC1)N=C(c1cccc(OC(F)(F)F)c1)NC2=O
Completion: met

Prompt: Threshold query (cAMP production activity (%) >= 70%) on N#Cc1c[nH]c2cccc(CCS(=O)(=O)N3CCC4(CC3)N=C(C3CCCCC3)NC4=O)c12
Completion: met

Prompt: Threshold query (cAMP production activity (%) >= 70%) on Cc1cc(C(=O)N2CCN(C)CC2)ccc1CCS(=O)(=O)N1CCC2(CC1)N=C(c1cccc(OC(F)(F)F)c1)NC2=O
Completion: met

Prompt: Threshold query (cAMP production activity (%) >= 70%) on CCCCCCCCCC1=NC2(CCN(S(=O)(=O)CCc3ccc(N4C(=O)CNC4=O)cc3C)CC2)C(=O)N1
Completion: met

Prompt: Threshold query (cAMP production activity (%) >= 70%) on COc1cc(C2=NC3(CCN(S(=O)(=O)CCc4ccc(C(=O)N(C)C)cc4C)CC3)C(=O)N2)ccn1
Completion: not met

Prompt: Threshold query (cAMP production activity (%) >= 70%) on Cc1cc(NCC(=O)NCCN(C)C)ccc1CCS(=O)(=O)N1CCC2(CC1)N=C(c1cccc(OC(F)(F)F)c1)NC2=O
Completion: not met

Prompt: Threshold query (cAMP production activity (%) >= 70%) on COc1ccc(CCCS(=O)(=O)N2CCC3(CC2)N=C(C2CCCCC2)NC3=O)cc1
Completion: not met

Prompt: Threshold query (cAMP production activity (%) >= 70%) on Cc1cc(C(=O)N(C)C)ccc1CCS(=O)(=O)N1CCC2(CC1)N=C(c1cccc(Cl)c1F)NC2=O
Completion: met

Prompt: Threshold query (cAMP production activity (%) >= 70%) on Cc1cc(N(C)C(N)=O)cc(C)c1CCS(=O)(=O)N1CCC2(CC1)N=C(C1CCC(=C(F)F)CC1)NC2=O (centres unmarked)
Completion: met

Prompt: Threshold query (cAMP production activity (%) >= 70%) on Cc1cc(C(=O)N2CCN(CCCN(C)C)CC2)ccc1CCS(=O)(=O)N1CCC2(CC1)N=C(c1cccc(C(F)(F)F)c1)NC2=O
Completion: met

Prompt: Threshold query (cAMP production activity (%) >= 70%) on Cc1cc(C(=O)N(C)C)ccc1CCS(=O)(=O)N1CCC2(CC1)N=C(c1cccc(Br)c1)NC2=O
Completion: met

Prompt: Threshold query (cAMP production activity (%) >= 70%) on CC(C)(C)[C@H]1CC[C@H](C2=NC3(CCN(S(=O)(=O)c4cccc(Cl)c4)CC3)C(=O)N2)CC1
Completion: not met

Prompt: Threshold query (cAMP production activity (%) >= 70%) on Cc1cc2c(/C=C/S(=O)(=O)N3CCC4(CC3)N=C(C3CCCCC3)NC4=O)cccc2[nH]1
Completion: not met

Prompt: Threshold query (cAMP production activity (%) >= 70%) on C=CCCCCCCCC(=O)N(C)c1cc(C)c(CCS(=O)(=O)N2CCC3(CC2)N=C(CCCCC=C)NC3=O)c(C)c1
Completion: not met

Prompt: Threshold query (cAMP production activity (%) >= 70%) on Cc1cc(N(C)C(N)=O)cc(C)c1/C=C/[S@TB3](=O)(=O)N1CCC2(CC1)N=C(c1ccc(Cl)c(C(F)(F)F)c1)NC2=O
Completion: met

Prompt: Threshold query (cAMP production activity (%) >= 70%) on CNC1CCN(C(=O)c2ccc(CCS(=O)(=O)N3CCC4(CC3)N=C(c3cccc(C(F)(F)F)c3)NC4=O)c(C)c2)C1 (centres unmarked)
Completion: not met

Prompt: Threshold query (cAMP production activity (%) >= 70%) on CC(=O)N(CC#N)c1ccc(/C=C/S(=O)(=O)N2CCC3(CC2)N=C(c2cccc(OC(F)(F)F)c2)NC3=O)c(C)c1
Completion: not met

* * *

Molecular target: human PTH1 receptor (Homo sapiens)
Experiment: In vitro cAMP signal activity in HKRK-B7 cells (LLC-PK1 cells overexpressing the human PTH1 receptor)
Format: cell-based
Details: HKRK-B7 cells; compound at 1×10^−3 M; cAMP produced as percentage of that produced by hPTH(1-34) at 100 nM
ASSAY_METRIC: cAMP production activity (%)
Lab book: enter the figure in %, no units written.

Prompt: Can you share its cAMP production activity (%)? I mean this compound: Cc1cc(C(=O)N(C)C)ccc1CCS(=O)(=O)N1CCC2(CC1)N=C(c1ccc(Cl)cc1)NC2=O
Completion: 6.7

Prompt: Can you share its cAMP production activity (%)? I mean this compound: Cc1cc(N(C)C(N)=O)cc(C)c1CCS(=O)(=O)N1CCC2(CC1)N=C(CCCCCC(F)(F)C(F)(F)F)NC2=O
Completion: 99

Prompt: Can you share its cAMP production activity (%)? I mean this compound: Cc1cc(C(=O)N2CCC(O)CC2)cc(C)c1/C=C/S(=O)(=O)N1CCC2(CC1)N=C(c1cccc(C(F)(F)F)c1F)NC2=O
Completion: 83

Prompt: Can you share its cAMP production activity (%)? I mean this compound: CCCCC1CCC(C2=NC3(CCN(S(=O)(=O)/C=C/c4c(C)cc(N(CCOCCOC)C(C)=O)cc4C)CC3)C(=O)N2)CC1 (stereo not drawn)
Completion: 52

Prompt: Can you share its cAMP production activity (%)? I mean this compound: CC(=O)Nc1ccc(CCS(=O)(=O)N2CCC3(CC2)N=C(C2CCC(C(C)(C)C)CC2)NC3=O)c(C)c1 (stereo not drawn)
Completion: 78

Prompt: Can you share its cAMP production activity (%)? I mean this compound: Cc1cc(C(=O)N2CCC(O)(CF)CC2)cc(C)c1/C=C/S(=O)(=O)N1CCC2(CC1)N=C(c1ccc(OCC(F)(F)F)c(C(F)(F)F)c1)NC2=O
Completion: 81

Data credit: patent US9169254B2
